Entry source: patent EP4703356A1

Test: Pharmacokinetic study in rat eyes
Type: in vivo, brown Norway rats
Settings: Brown Norway, 2 mg/kg, 2 mpk PO, plasma, read-out: Plasma AUC0-last
metric name: AUC(0-t) (µM·h)
Output spec: scalar in µM·h, unitless text.

{"columns": ["molecule", "value unit", "AUC(0-t)"],
 "data": [
  ["COc1cc(C)c2[nH]ccc2c1CN1CCC2(C[C@H]1c1ccc(C(=O)O)cc1C)CC(F)(F)C2", "µM·h", 12.7]
]}

Switching to the query record.
Entry CCO[C@H]1CCN(Cc2c(OC)cc(C)c3[nH]ccc23)[C@H](c2ccc(C(=O)O)cc2)C1 [Iptacopan, reference compound] : reported AUC(0-t) = ? 13.5
